Biological target: TC-PTP (Homo sapiens)
Assay: FP-based library screening (fluorescence polarization displacement)
Assay type: binding
Conditions: library 1; 2 μM TCPTP, 500 μM Fmoc-F2Pmp-OH competitive ligand; smaller = higher affinity
observed-property: Displacement %, TC-PTP (%)

O=C(O)c1ccsc1 [3-thiophenecarboxylic acid] | 51
COc1ccc(C(=O)O)cc1F [3-fluoro-4-methoxybenzoic acid] | 54
O=C(O)c1ccc(F)cc1 [4-fluorobenzoic acid] | 46
COc1cc(C(=O)O)ccc1[N+](=O)[O-] [3-methoxy-4-nitrobenzoic acid] | 40

###

Biological target: TC-PTP (Homo sapiens, UniProt P17706)
Sequence (P17706 whole entry): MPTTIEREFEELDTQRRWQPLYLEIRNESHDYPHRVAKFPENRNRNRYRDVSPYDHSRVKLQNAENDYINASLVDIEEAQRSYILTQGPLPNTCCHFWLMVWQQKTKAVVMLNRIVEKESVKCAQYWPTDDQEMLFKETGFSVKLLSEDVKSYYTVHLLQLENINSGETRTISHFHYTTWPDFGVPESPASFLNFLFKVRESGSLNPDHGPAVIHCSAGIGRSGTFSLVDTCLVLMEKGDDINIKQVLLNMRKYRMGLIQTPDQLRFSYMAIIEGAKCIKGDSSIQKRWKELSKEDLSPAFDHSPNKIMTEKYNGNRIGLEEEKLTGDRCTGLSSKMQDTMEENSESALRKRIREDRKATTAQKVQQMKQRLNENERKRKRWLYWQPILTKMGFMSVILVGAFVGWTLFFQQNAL
Test: FP-based library screening (fluorescence polarization displacement)
Assay type: binding
Settings: library 3; 0.5 μM enzyme, 5 μM Example 6 compound as competitor
observed-property: Displacement %, TC-PTP (%)

CN(C)c1ccc(CC(=O)O)cc1 | 79
O=C(O)Cc1ccc(Br)cc1 | 77
COc1cc(CC(=O)O)ccc1O | 54
O=C(O)Cc1ccc(O)cc1 [2-(4-hydroxyphenyl)acetic acid] | 62

###

Target: PTP1B (Homo sapiens)
Sequence (P18031 whole entry): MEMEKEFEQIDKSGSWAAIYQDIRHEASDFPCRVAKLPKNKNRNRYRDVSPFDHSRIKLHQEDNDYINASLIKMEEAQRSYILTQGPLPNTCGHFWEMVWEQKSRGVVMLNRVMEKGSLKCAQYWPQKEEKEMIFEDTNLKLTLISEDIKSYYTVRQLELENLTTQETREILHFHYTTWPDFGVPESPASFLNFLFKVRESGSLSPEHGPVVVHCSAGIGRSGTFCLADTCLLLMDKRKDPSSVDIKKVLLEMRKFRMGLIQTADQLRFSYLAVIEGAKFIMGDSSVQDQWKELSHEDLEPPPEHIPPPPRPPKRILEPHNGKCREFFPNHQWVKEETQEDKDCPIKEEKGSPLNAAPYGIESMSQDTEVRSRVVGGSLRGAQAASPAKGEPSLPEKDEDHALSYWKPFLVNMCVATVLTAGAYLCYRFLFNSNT
Experiment: FP-based library screening (fluorescence polarization displacement)
Format: binding
Settings: library 1; 2 μM PTP1B, 500 μM Fmoc-F2Pmp-OH competitive ligand; smaller = higher affinity
observed-property: Displacement %, PTP1B (%)

COc1cc(C(=O)O)ccc1[N+](=O)[O-] [3-methoxy-4-nitrobenzoic acid] | 41
O=C(O)c1ccsc1 [3-thiophenecarboxylic acid] | 45
COc1ccc(C(=O)O)cc1F [3-fluoro-4-methoxybenzoic acid] | 57
O=C(O)c1ccc(F)cc1 [4-fluorobenzoic acid] | 44

###

Target: PTP1B (Homo sapiens)
Assay: Degradation assay in HEK293 cells (immunoblotting)
Type: cell-based
Design: endogenous in cells; host or cells: HEK293
Settings: 0.2 μM degrader, 16 hours
*1 amine or outer side, *2 acyl side, *3 side chain or, on linkers, in order; H or OH if unused. Where a SMILES comes first, the peptide text is derived from it. [ ]: non-standard residue; d: D form. The star is where a group is joined. NHBn(4-(4-Me-thiazol-5-yl)) = Cc1ncsc1-c1ccc(CN*)cc1; NHCH2(1,3-C6H4)CH2CO = O=C(Cc1cccc(CN[*:1])c1)[*:2]; F2Pmp = N[C@@H](Cc1ccc(C(F)(F)P(=O)(O)O)cc1)C(=O)O; Phenylacetyl(4-OH,3-OMe) = COc1cc(CC(=O)*)ccc1O; Benzoyl(3-Br,4-Me) = Cc1ccc(C(=O)*)cc1Br; X1 = Cc1ncsc1-c1ccc([C@H](C)N*)cc1; Hyp = O=C(O)[C@@H]1C[C@@H](O)CN1; X2 = O=C(CCN1CCN([*:1])CC1)[*:2]; X3 = O=C(CCC1CCN([*:1])CC1)[*:2]; Tle = CC(C)(C)[C@H](N)C(=O)O; 4Amb = NCc1ccc(C(=O)O)cc1; PEG1 = NCCOCCC(=O)O; Ahx = NCCCCCC(=O)O
Reported % Protein Degradation PTP1B values are given for each entry in this list.
Give the quantity in %, number only.

COc1cc(CC(=O)N[C@@H](Cc2ccccc2)C(=O)N[C@@H](Cc2ccc(C(F)(F)P(=O)(O)O)cc2)C(=O)N[C@@H](CCCCNC(=O)c2ccc(C)c(Br)c2)C(=O)NCc2ccccc2CCC(=O)N[C@H](C(=O)N2C[C@H](O)C[C@H]2C(=O)NCc2ccc(-c3scnc3C)cc2)C(C)(C)C)ccc1O (stereo in doubt) [Compound 40] | 16

Ask: % Protein Degradation PTP1B for COc1cc(CC(=O)N[C@@H](Cc2ccccc2)C(=O)N[C@@H](Cc2ccc(C(F)(F)P(=O)(O)O)cc2)C(=O)N[C@@H](CCCCNC(=O)c2ccc(C)c(Br)c2)C(=O)NCCCCCC(=O)N[C@H](C(=O)N2C[C@H](O)C[C@H]2C(=O)NCc2ccc(-c3scnc3C)cc2)C(C)(C)C)ccc1O [Compound 8] ({Phenylacetyl(4-OH,3-OMe)}-F[F2Pmp]K(Benzoyl(3-Br,4-Me))[Ahx][Tle][Hyp]-{NHBn(4-(4-Me-thiazol-5-yl))}) ?
Result: 61

Ask: Field request: % Protein Degradation PTP1B | item: COc1cc(CC(=O)N[C@@H](Cc2ccccc2)C(=O)N[C@@H](Cc2ccc(C(F)(F)P(=O)(O)O)cc2)C(=O)N[C@@H](CCCCNC(=O)c2ccc(C)c(Br)c2)C(=O)NCCOCCC(=O)N[C@H](C(=O)N2C[C@H](O)C[C@H]2C(=O)NCc2ccc(-c3scnc3C)cc2)C(C)(C)C)ccc1O [Compound 28] ({Phenylacetyl(4-OH,3-OMe)}-F[F2Pmp]K(Benzoyl(3-Br,4-Me))[PEG1][Tle][Hyp]-{NHBn(4-(4-Me-thiazol-5-yl))})
Result: 45

Ask: Recorded % Protein Degradation PTP1B for COc1cc(CC(=O)N[C@@H](Cc2ccccc2)C(=O)N[C@@H](Cc2ccc(C(F)(F)P(=O)(O)O)cc2)C(=O)N[C@@H](CCCCNC(=O)c2ccc(C)c(Br)c2)C(=O)N2CCN(CCC(=O)N[C@H](C(=O)N3C[C@H](O)C[C@H]3C(=O)NCc3ccc(-c4scnc4C)cc3)C(C)(C)C)CC2)ccc1O [Compound 56] ({Phenylacetyl(4-OH,3-OMe)}-F[F2Pmp]K(Benzoyl(3-Br,4-Me))[X2][Tle][Hyp]-{NHBn(4-(4-Me-thiazol-5-yl))}) , please?
Result: 30

Ask: Can you share its % Protein Degradation PTP1B? I mean this molecule: COc1cc(CC(=O)N[C@@H](Cc2ccccc2)C(=O)N[C@@H](Cc2ccc(C(F)(F)P(=O)(O)O)cc2)C(=O)N[C@@H](CCCCNC(=O)c2ccc(C)c(Br)c2)C(=O)NCc2cccc(CC(=O)N[C@H](C(=O)N3C[C@H](O)C[C@H]3C(=O)NCc3ccc(-c4scnc4C)cc3)C(C)(C)C)c2)ccc1O [Compound 48] ({Phenylacetyl(4-OH,3-OMe)}-F[F2Pmp]K(Benzoyl(3-Br,4-Me))[NHCH2(1,3-C6H4)CH2CO][Tle][Hyp]-{NHBn(4-(4-Me-thiazol-5-yl))})
Result: 75

Ask: Suppose we examine the molecule COc1cc(CC(=O)N[C@@H](Cc2ccccc2)C(=O)N[C@@H](Cc2ccc(C(F)(F)P(=O)(O)O)cc2)C(=O)N[C@@H](CCCCNC(=O)c2ccc(C)c(Br)c2)C(=O)NCCOCCC(=O)N[C@H](C(=O)N2C[C@H](O)C[C@H]2C(=O)N[C@@H](C)c2ccc(-c3scnc3C)cc2)C(C)(C)C)ccc1O [Compound 27] ({Phenylacetyl(4-OH,3-OMe)}-F[F2Pmp]K(Benzoyl(3-Br,4-Me))[PEG1][Tle][Hyp]-X1) ; what % Protein Degradation PTP1B value has been reported?
Result: 75

Ask: If you can, please state the reported % Protein Degradation PTP1B value of COc1cc(CC(=O)N[C@@H](Cc2ccccc2)C(=O)N[C@@H](Cc2ccc(C(F)(F)P(=O)(O)O)cc2)C(=O)N[C@@H](CCCCNC(=O)c2ccc(C)c(Br)c2)C(=O)NCc2cccc(CC(=O)N[C@H](C(=O)N3C[C@H](O)C[C@H]3C(=O)N[C@@H](C)c3ccc(-c4scnc4C)cc3)C(C)(C)C)c2)ccc1O [Compound 47] ({Phenylacetyl(4-OH,3-OMe)}-F[F2Pmp]K(Benzoyl(3-Br,4-Me))[NHCH2(1,3-C6H4)CH2CO][Tle][Hyp]-X1) .
Result: 95

Ask: Which % Protein Degradation PTP1B is reported for this molecule? COc1cc(CC(=O)N[C@@H](Cc2ccccc2)C(=O)N[C@@H](Cc2ccc(C(F)(F)P(=O)(O)O)cc2)C(=O)N[C@@H](CCCCNC(=O)c2ccc(C)c(Br)c2)C(=O)NCc2ccc(C(=O)N[C@H](C(=O)N3C[C@H](O)C[C@H]3C(=O)NCc3ccc(-c4scnc4C)cc3)C(C)(C)C)cc2)ccc1O [Compound 54] ({Phenylacetyl(4-OH,3-OMe)}-F[F2Pmp]K(Benzoyl(3-Br,4-Me))[4Amb][Tle][Hyp]-{NHBn(4-(4-Me-thiazol-5-yl))})
Result: 24

Ask: What value of measured % Protein Degradation PTP1B is listed for COc1cc(CC(=O)N[C@@H](Cc2ccccc2)C(=O)N[C@@H](Cc2ccc(C(F)(F)P(=O)(O)O)cc2)C(=O)N[C@@H](CCCCNC(=O)c2ccc(C)c(Br)c2)C(=O)N2CCC(CCC(=O)N[C@H](C(=O)N3C[C@H](O)C[C@H]3C(=O)NCc3ccc(-c4scnc4C)cc3)C(C)(C)C)CC2)ccc1O [Compound 58] ({Phenylacetyl(4-OH,3-OMe)}-F[F2Pmp]K(Benzoyl(3-Br,4-Me))[X3][Tle][Hyp]-{NHBn(4-(4-Me-thiazol-5-yl))}) ?
Result: 26

###

Molecular target: UniProt:P17706
Test: PTP activity assay with pNPP substrate (IC50, Ki, mode of inhibition)
Type: biochemical
Conditions: pNPP 2 mM, pH 7.0, 25° C.; read-out: IC50, nM TC-PTP
Where a SMILES comes first, the peptide text is derived from it. [ ]: non-standard residue; d: D form. The star is where a group is joined. NHBn(4-(4-Me-thiazol-5-yl)) = Cc1ncsc1-c1ccc(CN*)cc1; F2Pmp = N[C@@H](Cc1ccc(C(F)(F)P(=O)(O)O)cc1)C(=O)O; Phenylacetyl(4-OH,3-OMe) = COc1cc(CC(=O)*)ccc1O; Benzoyl(3-Br,4-Me) = Cc1ccc(C(=O)*)cc1Br; Hyp = O=C(O)[C@@H]1C[C@@H](O)CN1; dHyp = O=C(O)[C@H]1C[C@H](O)CN1; dTle = CC(C)(C)[C@@H](N)C(=O)O; Tle = CC(C)(C)[C@H](N)C(=O)O; Ahp = NCCCCCCC(=O)O; Ahx = NCCCCCC(=O)O
IC50 values by entry
Use nM as the unit, but write only the number.

Please review the entries below; each comes with its answer.
COc1cc(CC(=O)N[C@@H](Cc2ccccc2)C(=O)N[C@@H](Cc2ccc(C(F)(F)P(=O)(O)O)cc2)C(=O)N[C@@H](CCCCNC(=O)c2ccc(C)c(Br)c2)C(=O)NCCCCCCC(=O)N[C@@H](C(=O)N2C[C@@H](O)C[C@@H]2C(=O)NCc2ccc(-c3scnc3C)cc2)C(C)(C)C)ccc1O [Compound 10] ({Phenylacetyl(4-OH,3-OMe)}-F[F2Pmp]K(Benzoyl(3-Br,4-Me))[Ahp][dTle][dHyp]-{NHBn(4-(4-Me-thiazol-5-yl))}) | 6.8
COc1cc(CC(=O)N[C@@H](Cc2ccccc2)C(=O)N[C@@H](Cc2ccc(C(F)(F)P(=O)(O)O)cc2)C(=O)N[C@@H](CCCCNC(=O)c2ccc(C)c(Br)c2)C(=O)NCCCCCC(=O)N[C@H](C(=O)N2C[C@H](O)C[C@H]2C(=O)NCc2ccc(-c3scnc3C)cc2)C(C)(C)C)ccc1O [Compound 8] ({Phenylacetyl(4-OH,3-OMe)}-F[F2Pmp]K(Benzoyl(3-Br,4-Me))[Ahx][Tle][Hyp]-{NHBn(4-(4-Me-thiazol-5-yl))}) | 12.8

Please look at the following compound next.
Ask: // IC50 lookup, key: COc1cc(CC(=O)N[C@@H](Cc2ccccc2)C(=O)N[C@@H](Cc2ccc(C(F)(F)P(=O)(O)O)cc2)C(=O)N[C@@H](CCCCNC(=O)c2ccc(C)c(Br)c2)C(N)=O)ccc1O
Result: 7.1
